Attribute: pIC50
# assay system: human rec ACSS2 (Homo sapiens (Human), UniProt Q9NR19)
# Sequence (Q9NR19 whole entry): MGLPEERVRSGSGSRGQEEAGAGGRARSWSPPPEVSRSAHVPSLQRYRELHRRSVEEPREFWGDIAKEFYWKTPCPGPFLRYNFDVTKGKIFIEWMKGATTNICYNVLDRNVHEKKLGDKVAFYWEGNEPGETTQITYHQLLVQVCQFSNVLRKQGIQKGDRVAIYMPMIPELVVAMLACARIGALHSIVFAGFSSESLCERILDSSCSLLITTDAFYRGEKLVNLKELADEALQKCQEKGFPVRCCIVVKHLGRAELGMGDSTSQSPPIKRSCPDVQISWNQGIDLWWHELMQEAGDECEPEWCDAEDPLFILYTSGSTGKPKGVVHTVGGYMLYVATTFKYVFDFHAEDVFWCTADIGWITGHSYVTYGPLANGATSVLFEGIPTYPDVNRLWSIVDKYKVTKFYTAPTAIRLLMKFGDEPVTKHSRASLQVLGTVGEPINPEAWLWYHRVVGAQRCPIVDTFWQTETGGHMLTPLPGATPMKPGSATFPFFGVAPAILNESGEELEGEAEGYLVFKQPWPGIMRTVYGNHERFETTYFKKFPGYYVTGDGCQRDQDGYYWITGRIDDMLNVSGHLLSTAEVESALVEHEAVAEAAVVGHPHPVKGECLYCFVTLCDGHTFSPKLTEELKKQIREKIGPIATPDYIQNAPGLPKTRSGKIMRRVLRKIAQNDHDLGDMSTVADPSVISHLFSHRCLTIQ
# experiment summary: Biochemical activity ACSS2 assay (AMP-Glo)
# experimental setup: human recombinant ACSS2, AMP-Glo, 180 min at 37° C.
# Excerpt: Biochemical Activity ACSS2 Assay (IC50 ACSS2 Biochemical) The biochemical activity assay for ACSS2 is based on the detection of released AMP by AMP-Glo™ Assay kit (Promega, Madison). […] The ACSS2 activity correlates with the detected luminescence signal. […]
pIC50: −log10 of the molar value.

CCn1c(C(O)(c2ccccc2)c2ccccc2)nc2nc(Cl)c(-c3nnn[nH]3)cc21 :: 8.00 to 9.00
CCc1c(C(O)(c2ccccc2)c2ccccn2)nc2cc(OC)c(-c3nnn[nH]3)cn12 (single isomer, unassigned) [Compound 11] :: 8.00 to 9.00
CCn1c(C(O)(c2ccccc2F)c2ccc(OC(F)F)cc2F)nc2nc(OC)c(-c3nnn[nH]3)cc21 (racemic) :: 8.00 to 9.00

pIC50 reading for CCn1c(C(O)(c2ccccc2)c2nccs2)nc2nc(OC)c(-c3nnn[nH]3)cc21 (single isomer, unassigned) [Compound 33] : 7.00 to 8.00
